The reported numbers originate from patent US20240197694A1.

pKd: −log10 of the molar value.
Dear all, this message contains pKd results, target or system DCAF1 (1058-1396) (Homo sapiens, UniProt Q9Y4B6).

Sample answers from the record:
NCCOCCOCCOCCn1cccc1CNCc1ccncc1	4.15 to 4.40
c1ncc(CNCc2ccc3cc[nH]c3c2)[nH]1	< 4.00

# input Quick one: pKd of "C#CCNC(=O)CCN1CCc2[nH]c3ccc(F)cc3c2C1" ?
# output 4.15 to 4.40

# input Quick one: pKd of Cc1ccc2c(c1)[C@H]1CN(C)CC[C@H]1N2C(=O)/C=C/c1nccs1 (racemic) ?
# output < 4.00

# input Quick one: pKd of "COC(=O)NCCN1CCc2ccccc2C1" ?
# output 4.00 to 4.15
